- MEASURED TARGET: 5-hydroxytryptamine receptor 2C (Homo sapiens)
- Sequence (P28335 whole entry): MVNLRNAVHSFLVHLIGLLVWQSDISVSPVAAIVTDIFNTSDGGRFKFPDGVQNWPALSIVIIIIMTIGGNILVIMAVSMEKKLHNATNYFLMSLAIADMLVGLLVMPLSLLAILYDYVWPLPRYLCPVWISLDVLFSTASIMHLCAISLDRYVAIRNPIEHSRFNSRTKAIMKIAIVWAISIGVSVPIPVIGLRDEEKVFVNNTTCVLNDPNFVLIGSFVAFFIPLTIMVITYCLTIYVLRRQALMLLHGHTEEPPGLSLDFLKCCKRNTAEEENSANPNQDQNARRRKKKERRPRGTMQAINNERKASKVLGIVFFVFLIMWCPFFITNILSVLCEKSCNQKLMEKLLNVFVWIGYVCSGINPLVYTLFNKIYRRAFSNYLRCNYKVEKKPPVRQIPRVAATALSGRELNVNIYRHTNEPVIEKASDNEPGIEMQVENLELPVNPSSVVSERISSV
- ASSAY INFO: Effective concentration towards 5-hydroxytryptamine 2C receptors transfected in HEK293 cells was determined by measuring [3H]phosphoinositol release
Simple rule here: EC50 less than 7 nM is criterion met, otherwise criterion not met.

# example entries with known answers
[
  {
    "MOLECULE": "COc1cc2c(cc1Br)[C@H](C)CNCC2",
    "ANSWER LABEL": "criterion met"
  },
  {
    "MOLECULE": "CC1CNCCc2cc(OCc3ccccc3)c(Br)cc21 (configuration not stated)",
    "ANSWER LABEL": "criterion not met"
  },
  {
    "MOLECULE": "CC1CNCCc2ccc(F)cc21 (configuration not stated)",
    "ANSWER LABEL": "criterion not met"
  },
  {
    "MOLECULE": "CC1CNCCc2ccc(Cl)c(Cl)c21 (configuration not stated)",
    "ANSWER LABEL": "criterion met"
  },
  {
    "MOLECULE": "CCC1CNCCc2cc(OC)c(Br)cc21 (configuration not stated)",
    "ANSWER LABEL": "criterion not met"
  }
]

API: the following record is the query input.
Task item: I'd appreciate it if you could check whether COc1cc2c(cc1Br)CCNCC2 has EC50 smaller than 7 nM.
Reply: criterion not met
